tested on: PC-3; assay: NCI tumour cell line growth inhibition, 48 h
Counter-ions that a name gives are not always drawn. Active and inactive are the calls of the source. No stated cut-off is given here; in the data, active = GI50 up to about 1.1 µM and inactive = higher.
Entry note: the call must match one of active, inactive

What call does the record list for "CCOC(=O)c1nc2ccc(C(F)(F)F)cc2nc1Nc1ccc(F)cc1" ?
inactive

Next molecule: "O=C(Nc1cc(Cl)c(I)c(Cl)c1)C(F)(F)F"
inactive

Next molecule: "CCOP(=O)(Nc1ccc(-c2ccccc2)cc1)OCC"
inactive

Next molecule: "O=C(O)CCCNc1ncc2c(n1)-c1ccccc1OC2"
inactive

Next molecule: "COc1ccc2[nH]c3c(C)c4ccnc(NCCCN(C)CCCNc5ccc([N+](=O)[O-])c6[nH]c7ccccc7c(=O)c56)c4c(C)c3c2c1"
active

Next molecule: "CCCCCCCCCCCCn1c(=O)cc(NCCCC)c2cc3c(NCCCC)cc(=O)n(CCCCCCCCCCCC)c3nc21"
inactive

Next molecule: CC1CC/C(=C\c2ccc(F)cc2)C(=O)/C1=C/c1ccc(F)cc1 (configuration not stated)
inactive

Next molecule: "Cc1nnc(N)nc1/C=C\c1ccc(N(C)C)cc1"
inactive

Next molecule: O=C1CC(O)c2c(Br)sc(Br)c21 (configuration not stated)
inactive

Next molecule: "COc1ccc(OC)c2c(=S)c3ccccc3[nH]c12"
inactive

Next molecule: CN(C)CCOc1ccc(/C(=C(/CCCl)c2ccccc2)c2ccccc2)cc1 [TOREMIFENE CITRATE]
inactive

Next molecule: "CCOC(=O)CC/C(=N/Nc1ccc(Cl)cc1[N+](=O)[O-])C(=O)OCC"
inactive

Next molecule: "C=C(C)[C@@H]1CC[C@]2(C(=O)O)CC[C@]3(C)[C@H](CC[C@@H]4[C@@]5(C)CC(=O)C(C)(C)[C@@H]5CC[C@]43C)[C@@H]12"
inactive

Next molecule: CCC1([N+](=O)[O-])CC2C=CC1C2 (configuration not stated)
inactive

Next molecule: "CCN(CC)Cc1ccccc1CC(=O)N1c2ccccc2C(=O)Nc2cccnc21"
inactive

Next molecule: OCC(O)C(O)C(C=NNc1ncnc2ccc(Br)cc12)=NNc1ncnc2ccc(Br)cc12 (configuration not stated)
inactive

Next molecule: "CCOC(=O)/C(=C\c1ccccc1)C(=O)CCN1CCOCC1"
inactive

Next molecule: "O=C(/C=C/c1ccc([N+](=O)[O-])cc1)N1CCN(CCOC(c2ccc(F)cc2)c2ccc(F)cc2)CC1"
inactive

Next molecule: "CC(=O)NC(=N/N=C1/C(=O)Nc2ccc(C)cc21)NC(C)=O"
inactive

Next molecule: "C(CCCCc1nnc(N2CCOCC2)o1)CCCc1nnc(N2CCOCC2)o1"
inactive

Next molecule: "CCCCCCCCCc1c(Cl)nc(Cl)nc1Cl"
inactive

Next molecule: "CCCC(=O)NC(Nc1ccc(S(=O)(=O)Nc2ccc(OC)nn2)cc1)(C(F)(F)F)C(F)(F)F"
inactive

====

tested on: NCI-H460; test: NCI tumour cell line growth inhibition, 48 h
Active and inactive are the calls of the source. Rule as the data show it: active = GI50 up to about 1.1 µM and inactive = higher.
Answer each item with its documented GI50.

Please look up its GI50: "COC(=O)CCC(=O)Nc1ccc(Cl)cc1C"
> 100 µM (inactive)

Next compound: COc1ccc(N2C(=O)C3c4[nH]c5c(C)cccc5c4C4CCC(C(C)(C)C)CC4C3C2=O)cc1 (stereo not drawn)
2.83 µM (inactive)

Next compound: N#CC1=C(S)N(C2OC(CO)C(O)C(O)C2O)C(c2ccccc2)=CC1c1ccccc1 (stereo not drawn)
37.6 µM (inactive)

Next compound: O=C(Nc1ccc(Cl)cc1Cl)C1C(=O)N(c2ccc(Cl)cc2Cl)C(=O)/C1=N\Nc1ccc([N+](=O)[O-])cc1[N+](=O)[O-] (stereo not drawn)
59.8 µM (inactive)

Next compound: "O=c1c2ccccc2c2c1c1c3ccccc3c(=O)c1c1c3ccccc3c(=O)c21"
> 100 µM (inactive)

Next compound: "C=CCc1cccc2cc(C(=O)NCc3ccccc3)c(=N)oc12"
28.5 µM (inactive)

Next compound: "CC(C)(C)c1c2c(c(C(C)(C)C)c3c1OCN(Cc1ccccc1)C3)OCN(Cc1ccccc1)C2"
15.1 µM (inactive)

Next compound: "Nc1ccccc1C(=O)CCC1C(=O)NC(=S)NC1=O"
> 100 µM (inactive)

Next compound: O=C1OC(c2ccccc2)=N/C1=C/NC(Cc1ccc(O)cc1)C(=O)O (stereo not drawn)
> 100 µM (inactive)

Next compound: "COc1ccc(CNc2nc(NCc3ccc(OC)cc3)nc(Nc3ccccc3)n2)cc1"
7.16 µM (inactive)

Next compound: COC(=O)C1[C@H](c2ccc3c(c2)OCO3)OC(=O)[C@]1(C(=O)OC)C(=O)c1ccc(OC)c(OC)c1 (stereo partly drawn)
38.7 µM (inactive)

Next compound: "COc1ccc2c(c1)/C(=C(\C(Cl)=C(\Cl)N1CCCCC1)[N+](=O)[O-])N2"
> 100 µM (inactive)

Next compound: COC(=O)C1=CC(O)CCC1c1ccc(OC)cc1 (stereo not drawn)
> 100 µM (inactive)

Next compound: N#CC1C(=O)N(c2ccccc2)NC12OC(=O)c1ccncc12 (stereo not drawn)
> 20 µM (inactive)

Next compound: CCOC(=O)C1=C(C)C2C3C(=O)OC(=O)C3C1(C)C1C(=O)OC(=O)C21 (stereo not drawn)
> 100 µM (inactive)

Next compound: "Cc1ccc(S(=O)(=O)N/N=c2\c(C)c(C3=NS(=O)(=O)c4cc(S(N)(=O)=O)c(Cl)cc4N3)oc3c(Cl)cc(Cl)cc23)cc1"
60.7 µM (inactive)

Next compound: COc1cc(C2C(Cl)C(=O)N2n2cnc3ccccc3c2=O)cc(OC)c1OC (stereo not drawn)
> 100 µM (inactive)

Next compound: "C[N+]1(C)C/C(=C\c2ccccc2)C(=O)/C(=C/c2ccccc2)C1"
> 100 µM (inactive)

Next compound: "CCN(CC)CCNc1ccc2ncn3c4ccc(OC)cc4c(=O)c1c23"
0.646 µM (active)

Next compound: O=[N+]([O-])c1nccn1CC(O)CN1CC1 (stereo not drawn)
27.6 µM (inactive)

Next compound: CCOC1C=CC(=O)C(CO)O1 (stereo not drawn)
14.5 µM (inactive)

Next compound: "COC(=O)Cc1ccc2c(c1)Sc1ccc(CC(=O)OC)cc1N2C"
33.1 µM (inactive)

Next compound: "CN(C)C(=S)/N=c1\ssc(=S)n1Cc1ccco1"
1.34 µM (inactive)

Next compound: "COc1ccc2nc(-c3ccc(O)cc3)cc(O)c2c1"
1.95 µM (inactive)

Next compound: CC[C@H](C)[C@H]1NC(=O)[C@@H](NC(=O)[C@@H](CC(C)C)N(C)C(=O)C2CCCN2C(=O)[C@H](C)O)[C@@H](C)OC(=O)[C@H](Cc2ccccc2)N(C)C(=O)[C@@H]2CCCN2C(=O)[C@H](CC(C)C)NC(=O)[C@@H](C)C(=O)[C@H](C(C)C)OC(=O)C[C@@H]1O (stereo partly drawn)
< 0.00625 µM (active)

Next compound: CC(C)(C)C1CCC2c3c([nH]c4ccccc34)C3C(=O)N(c4ccccc4[N+](=O)[O-])C(=O)C3C2C1 (stereo not drawn)
4.25 µM (inactive)

Next compound: C[C@@H](Oc1ccc(Oc2cnc3ccc(Cl)cc3n2)cc1)C(=O)O [R(+)XK469]
11.2 µM (inactive)

Next compound: "CN(C(=O)C1=CCC2(CC1)OCCO2)c1ccccc1I"
> 100 µM (inactive)

Next compound: "O=C(Nc1sccc1S(=O)(=O)c1ccc(Cl)cc1)c1ccccc1"
> 100 µM (inactive)

Next compound: "Cc1c(C#N)c2nnn(-c3ccccc3)c(=O)n2c1-c1ccccc1"
1.92 µM (inactive)

Next compound: OC(c1ccccc1)C1CC2C=CC1C2 (stereo not drawn)
> 100 µM (inactive)

Next compound: "O=C(CCc1cc(O)cc(O)c1)NCCc1cc(OCc2ccccc2)cc(OCc2ccccc2)c1"
4.68 µM (inactive)

Next compound: "CCCCCCCCCCCCn1c(=O)cc(NCCCC)c2cc3c(NCCCC)cc(=O)n(CCCCCCCCCCCC)c3nc21"
> 100 µM (inactive)

====

tested on: HCT-116; experiment: NCI tumour cell line growth inhibition, 48 h
Calls of active or inactive are those of the source. Rule as the data show it: active = GI50 up to about 1.1 µM and inactive = higher.
Entry note: the call must match one of T (active), F (inactive)

What call does the record list for N#CC(c1ccccc1)N(CCc1ccccc1)C(=O)c1ccccc1 (stereo unspecified) ?
F

Next compound: "O=C(O)c1nn[nH]c1Cl"
F

Next compound: "C=CCC1(Sc2ccccn2)Sc2ccc3ccccc3c2-c2c(ccc3ccccc23)S1"
F

Next compound: "CN(C)c1ccc(-c2nc(-c3cc4c(ccc5ccccc54)oc3=O)cs2)cc1"
F

Next compound: COc1cc(C2c3cc4c(cc3OC(NNc3ccccc3)C2C)OCO4)cc(OC)c1OC (stereo unspecified)
T

Next compound: "COc1ccc(CCCNC(=O)Cc2cc(OC)c(OC)cc2CO)cc1OC"
F

Next compound: "NCCNCCNCc1c2ccccc2c(CNCCNCCN)c2ccccc12"
F

Next compound: "CCOC(=O)C1=C(C)N(Cc2ccccc2)C(C)=C(C(=O)OCC)C1c1ccccc1O"
F

Next compound: "Cc1ccc(C(=O)c2[nH]c(NCc3ccccc3)c(C(=S)Nc3ccccc3)c2N)cc1"
F

Next compound: "Cc1cccc2c1NC(=S)[C@@H]1CCCN1C2=O"
F

Next compound: "CCOc1cc(/C=N/c2ccc(Oc3ccc(Cl)cc3)c(Cl)c2)ccc1O"
F

Next compound: "COc1cc(/C=C2/C(=O)N(C(=O)c3ccccc3O)N=C2C)ccc1O"
T

Next compound: "C=C1CC/C=C(\C)CCC[C@H](C)[C@@H](O)[C@@H]2OC(=O)C(=C)[C@@H]2C[C@H]1O"
F

Next compound: "Sc1nnc(COc2ccc(Cl)cc2Cl)[nH]1"
F

Next compound: N=C(N)c1ccc(C(NC(=O)CNS(=O)(=O)c2ccc3ccccc3c2)P(=O)(Oc2ccccc2)Oc2ccccc2)cc1 (stereo unspecified)
F

Next compound: "CCN(CC)CCNc1ccc2ncn3c4ccc(OC)cc4c(=O)c1c23"
T

Next compound: "Cc1ccc(NC(=O)/C(Cc2nc3ccc([N+](=O)[O-])cc3nc2O)=N\NC(=O)C[n+]2ccccc2)c(C)c1"
F

Next compound: "COc1ccc2nc(-c3ccc(O)cc3)cc(O)c2c1"
T

Next compound: "CCN(CC)Cc1ccccc1CC(=O)N1c2ccccc2C(=O)Nc2cccnc21"
F

Next compound: N#CC1=C(S)N(C2OC(CO)C(O)C(O)C2O)C(c2ccccc2)=CC1c1ccccc1 (stereo unspecified)
F

Next compound: COc1nc2c(c(=O)n1C)N(C(C)=O)C1C(N2)OCC(OC(C)=O)C1OC(C)=O (stereo unspecified)
F
